Values compiled from ChEMBL document CHEMBL3991601.

- system: Glycogen synthase kinase-3 beta (Homo sapiens, UniProt P49841); also: in the data inactive means no Kd found up to 30 µM
- Sequence (P49841 whole entry): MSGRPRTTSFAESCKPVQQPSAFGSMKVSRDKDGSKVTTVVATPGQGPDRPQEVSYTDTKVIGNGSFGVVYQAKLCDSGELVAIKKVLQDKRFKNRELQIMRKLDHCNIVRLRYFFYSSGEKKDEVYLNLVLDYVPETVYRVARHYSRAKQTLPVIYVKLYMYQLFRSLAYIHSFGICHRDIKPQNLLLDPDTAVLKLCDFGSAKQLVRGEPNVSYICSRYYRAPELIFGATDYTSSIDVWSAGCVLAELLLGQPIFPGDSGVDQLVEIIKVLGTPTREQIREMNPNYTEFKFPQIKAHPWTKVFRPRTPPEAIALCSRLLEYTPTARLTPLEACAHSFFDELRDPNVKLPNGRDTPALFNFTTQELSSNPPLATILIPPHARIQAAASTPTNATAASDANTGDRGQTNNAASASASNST
Active and inactive are the calls of the source.
Reply using exactly one outcome from active, inactive

As a guide, the following entries are already answered.
compound | system | class.assignment
Cc1cc([C@@H](C)Nc2ccccc2C(=O)O)c2nc(N3CCOCC3)cc(=O)n2c1 | Glycogen synthase kinase-3 beta (Homo sapiens, UniProt P49841) | inactive
CN(C)C(=O)c1cc2cnc(Nc3ccc(N4CCNCC4)cn3)nc2n1C1CCCC1 | Glycogen synthase kinase-3 beta (Homo sapiens, UniProt P49841) | inactive
CCS(=O)(=O)N1CC(CC#N)(n2cc(-c3ncnc4[nH]ccc34)cn2)C1 | Glycogen synthase kinase-3 beta (Homo sapiens, UniProt P49841) | inactive
COc1cc(OC)c(/C=C/S(=O)(=O)Cc2ccc(OC)c(NCC(=O)O)c2)c(OC)c1 | Glycogen synthase kinase-3 beta (Homo sapiens, UniProt P49841) | inactive
CCc1cnn2c(NCc3ccc[n+]([O-])c3)cc(N3CCCC[C@H]3CCO)nc12 | Glycogen synthase kinase-3 beta (Homo sapiens, UniProt P49841) | active

Could you check what this test reported for Cc1cc2c(F)c(Oc3ncnn4cc(OC[C@@H](C)OC(=O)[C@H](C)N)c(C)c34)ccc2[nH]1 [BRIVANIB ALANINATE] ?
inactive

Could you check what this test reported for O=C1NC(=O)/C(=C/c2ccc3nccc(-c4ccncc4)c3c2)S1 ?
inactive

Could you check what this test reported for COc1cc2nccc(Oc3ccc(NC(=O)Nc4cc(C)on4)c(Cl)c3)c2cc1OC ?
inactive

Could you check what this test reported for Cc1c(F)cc(C(=O)NC2CC2)cc1-c1ccc(C(=O)NCC(C)(C)C)cn1 ?
inactive

Could you check what this test reported for Cc1ccc(NC(=O)c2ccc(CN3CC[C@H](N(C)C)C3)c(C(F)(F)F)c2)cc1Nc1nccc(-c2cncnc2)n1 ?
inactive

Could you check what this test reported for C[C@@H](c1ccc2nccn2c1)n1nnc2ncc(-c3cnn(C)c3)nc21 ?
inactive

Could you check what this test reported for CC[C@H](Nc1ncnc2[nH]cnc12)c1nc2cccc(F)c2c(=O)n1-c1ccccc1 ?
inactive

Could you check what this test reported for O=C(c1ccc(F)c(F)c1Nc1ccc(I)cc1F)N1CC(O)([C@@H]2CCCCN2)C1 ?
inactive

Could you check what this test reported for C=CC(=O)N1CCC(Oc2cc3c(Nc4ccc(Cl)c(Cl)c4F)ncnc3cc2OC)CC1 ?
inactive

Could you check what this test reported for CC(=O)Nc1cccc(-n2c(=O)n(C3CC3)c(=O)c3c(Nc4ccc(I)cc4F)n(C)c(=O)c(C)c32)c1 ?
inactive

Could you check what this test reported for CN1N=C(N)c2cn([C@@H]3O[C@H](COP(=O)(O)O)[C@@H](O)[C@H]3O)c3ncnc1c23 [TRICIRIBINE PHOSPHATE] ?
inactive

Could you check what this test reported for CC(C)Nc1cc(-c2c[nH]c(C(=O)N[C@H](CO)c3cccc(Cl)c3)c2)c(Cl)cn1 ?
inactive

Could you check what this test reported for Cc1ccc(S(=O)(=O)Nc2nc3ccccc3nc2Nc2ccc3nsnc3c2)cc1 ?
inactive

Could you check what this test reported for Cc1cc(-c2cc(O)ccc2Cl)cc2nnc(Nc3ccc(OCCN4CCCC4)cc3)nc12 ?
inactive

Could you check what this test reported for C[C@@H](Nc1cc(F)cc(F)c1)c1cc(C(=O)N(C)C)cc2c(=O)cc(N3CCOCC3)oc12 ?
inactive

Could you check what this test reported for CCCS(=O)(=O)Nc1ccc(F)c(C(=O)c2c[nH]c3ncc(-c4ccc(Cl)cc4)cc23)c1F ?
inactive

Could you check what this test reported for CNC(=O)c1ccc(C)c(-n2c(C)cc(OCc3ccc(F)cc3F)c(Br)c2=O)c1 ?
inactive

Could you check what this test reported for CNC(=O)c1cc(Oc2ccc(NC(=O)Nc3ccc(Cl)c(C(F)(F)F)c3)c(F)c2)ccn1 ?
inactive

Could you check what this test reported for O=C(Nc1ccc(-c2ccnc(Nc3ccc(N4CCOCC4)cc3)n2)cc1)C1CCCN1 (configuration not stated) ?
inactive

Could you check what this test reported for COC(=O)N[C@@H](C)CNc1nccc(-c2cn(C(C)C)nc2-c2cc(Cl)cc(NS(C)(=O)=O)c2F)n1 ?
active

###

- system: Activin receptor type-1 (Homo sapiens, UniProt Q04771); also: in the data inactive means no Kd found up to 30 µM
- Sequence (Q04771 whole entry): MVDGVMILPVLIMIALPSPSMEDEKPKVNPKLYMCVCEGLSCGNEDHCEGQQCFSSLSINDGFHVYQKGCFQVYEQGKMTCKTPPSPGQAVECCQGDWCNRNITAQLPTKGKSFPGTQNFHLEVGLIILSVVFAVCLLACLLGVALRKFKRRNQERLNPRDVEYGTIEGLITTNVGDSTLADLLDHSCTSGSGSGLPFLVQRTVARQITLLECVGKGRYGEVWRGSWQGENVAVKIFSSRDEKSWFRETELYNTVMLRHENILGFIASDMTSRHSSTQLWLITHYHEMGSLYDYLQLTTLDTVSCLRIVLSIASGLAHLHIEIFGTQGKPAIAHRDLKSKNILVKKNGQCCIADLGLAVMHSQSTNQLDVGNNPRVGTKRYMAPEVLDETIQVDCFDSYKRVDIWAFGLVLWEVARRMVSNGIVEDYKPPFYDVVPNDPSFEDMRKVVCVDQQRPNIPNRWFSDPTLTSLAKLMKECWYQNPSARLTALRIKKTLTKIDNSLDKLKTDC
Activity calls are given as the source filed them.
Reply using exactly one outcome from Y (active), N (inactive)

Could you check what this test reported for CN1CCC(CNc2ccc3ncc(-c4cccc(OC(F)(F)F)c4)n3n2)CC1 ?
Y

Could you check what this test reported for Cc1ccc(-n2nc(C(C)(C)C)cc2NC(=O)NCc2cc(F)ccc2Oc2ccc3c(cnn3CCO)c2)cc1 ?
N

Could you check what this test reported for CN1CC[C@@H](c2c(O)cc(O)c3c(=O)cc(-c4ccccc4Cl)oc23)[C@@H]1CO ?
N

Could you check what this test reported for CC[C@H](Nc1ncnc2[nH]cnc12)c1nc2cccc(F)c2c(=O)n1-c1ccccc1 ?
N

Could you check what this test reported for C[C@@H]1CN(Cc2ccc(F)cc2)[C@@H](C)CN1C(=O)c1cc2c(C(=O)C(=O)N(C)C)cn(C)c2cc1Cl ?
N

Could you check what this test reported for Cc1ccc(NC(=O)c2ccc(CN3CC[C@H](N(C)C)C3)c(C(F)(F)F)c2)cc1Nc1nccc(-c2cncnc2)n1 ?
N

###

Calls of active or inactive are those of the source.
// values below are Kd; system is Serine/threonine-protein kinase SIK2 (Homo sapiens); also: in the data inactive means no Kd found up to 30 µM
Sequence (Q9H0K1 whole entry): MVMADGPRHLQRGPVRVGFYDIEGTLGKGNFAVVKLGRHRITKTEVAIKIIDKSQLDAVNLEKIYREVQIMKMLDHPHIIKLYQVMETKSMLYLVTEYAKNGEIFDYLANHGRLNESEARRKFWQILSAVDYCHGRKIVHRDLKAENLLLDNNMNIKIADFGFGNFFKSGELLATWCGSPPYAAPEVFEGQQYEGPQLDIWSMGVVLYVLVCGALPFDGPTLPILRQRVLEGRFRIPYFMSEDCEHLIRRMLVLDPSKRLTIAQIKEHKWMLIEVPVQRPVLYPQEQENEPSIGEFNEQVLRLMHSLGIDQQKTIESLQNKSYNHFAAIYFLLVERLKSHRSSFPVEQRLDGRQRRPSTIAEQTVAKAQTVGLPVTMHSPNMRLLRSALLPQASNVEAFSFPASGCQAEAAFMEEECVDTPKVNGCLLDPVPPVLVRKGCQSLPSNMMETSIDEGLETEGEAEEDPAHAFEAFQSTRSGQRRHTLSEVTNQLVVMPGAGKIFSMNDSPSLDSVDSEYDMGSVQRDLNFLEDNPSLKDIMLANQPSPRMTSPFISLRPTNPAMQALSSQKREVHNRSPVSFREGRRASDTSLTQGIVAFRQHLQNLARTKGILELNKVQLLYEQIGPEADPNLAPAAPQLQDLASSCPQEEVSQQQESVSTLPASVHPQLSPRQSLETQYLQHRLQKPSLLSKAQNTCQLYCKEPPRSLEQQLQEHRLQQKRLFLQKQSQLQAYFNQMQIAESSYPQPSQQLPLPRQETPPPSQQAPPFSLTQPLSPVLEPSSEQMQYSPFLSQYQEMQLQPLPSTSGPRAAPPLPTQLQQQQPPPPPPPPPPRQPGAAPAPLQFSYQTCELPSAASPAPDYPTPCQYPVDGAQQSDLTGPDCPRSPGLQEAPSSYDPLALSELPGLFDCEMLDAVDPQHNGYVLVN

Give a short answer stating reported Kd for COc1cc2nccc(Oc3ccc(NC(=O)NC4CC4)c(Cl)c3)c2cc1C(N)=O [LENVATINIB] .
> 30 µM (inactive)

Give a short answer stating reported Kd for Cc1nc(N)sc1-c1ccnc(Nc2ccc(N3CCOCC3)cc2)n1 [CYC-116] .
1.4 µM (active)

Give a short answer stating reported Kd for CN(C)C(=O)c1cc2cnc(Nc3ccc(N4CCNCC4)cn3)nc2n1C1CCCC1 [RIBOCICLIB] .
2.49 µM (active)

###

- system: Cyclin-dependent kinase 17 (Homo sapiens); also: in the data inactive means no Kd found up to 30 µM
- Sequence (Q00537 whole entry): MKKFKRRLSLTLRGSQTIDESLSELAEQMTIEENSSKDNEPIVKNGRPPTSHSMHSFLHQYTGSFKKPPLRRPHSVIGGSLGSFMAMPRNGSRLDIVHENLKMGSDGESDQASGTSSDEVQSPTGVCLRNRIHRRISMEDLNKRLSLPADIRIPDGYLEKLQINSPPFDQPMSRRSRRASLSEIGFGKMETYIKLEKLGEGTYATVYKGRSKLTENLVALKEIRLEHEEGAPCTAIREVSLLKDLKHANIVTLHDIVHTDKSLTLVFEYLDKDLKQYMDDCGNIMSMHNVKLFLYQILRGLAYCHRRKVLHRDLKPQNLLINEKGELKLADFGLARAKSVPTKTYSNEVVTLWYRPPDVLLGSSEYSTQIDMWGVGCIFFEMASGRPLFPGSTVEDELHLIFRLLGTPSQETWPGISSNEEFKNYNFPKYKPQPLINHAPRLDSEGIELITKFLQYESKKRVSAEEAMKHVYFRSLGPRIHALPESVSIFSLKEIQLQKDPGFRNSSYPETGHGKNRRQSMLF
The source made the active and inactive calls.
Reply using exactly one outcome from active, inactive

As a guide, the following entries are already answered.
compound | system | class.assignment
Cc1ccc(-n2nc(C(C)(C)C)cc2NC(=O)NCc2cc(F)ccc2Oc2ccc3c(cnn3CCO)c2)cc1 [PEXMETINIB] | Cyclin-dependent kinase 17 (Homo sapiens) | active
Cc1cc2c(F)c(Oc3ncnn4cc(OC[C@@H](C)OC(=O)[C@H](C)N)c(C)c34)ccc2[nH]1 [BRIVANIB ALANINATE] | Cyclin-dependent kinase 17 (Homo sapiens) | inactive
COc1ccc(-c2ccc3c(N4CCOC[C@@H]4C)nc(N4CCOC[C@@H]4C)nc3n2)cc1CO [AZD-8055] | Cyclin-dependent kinase 17 (Homo sapiens) | inactive

Switching to the query record.
Could you check what this test reported for O=C(c1ccc(F)c(F)c1Nc1ccc(I)cc1F)N1CC(O)([C@@H]2CCCCN2)C1 [COBIMETINIB] ?
inactive

###

- system: Tyrosine-protein kinase ABL1 (Homo sapiens, UniProt P00519); also: in the data inactive means no Kd found up to 30 µM
- Sequence (P00519 whole entry): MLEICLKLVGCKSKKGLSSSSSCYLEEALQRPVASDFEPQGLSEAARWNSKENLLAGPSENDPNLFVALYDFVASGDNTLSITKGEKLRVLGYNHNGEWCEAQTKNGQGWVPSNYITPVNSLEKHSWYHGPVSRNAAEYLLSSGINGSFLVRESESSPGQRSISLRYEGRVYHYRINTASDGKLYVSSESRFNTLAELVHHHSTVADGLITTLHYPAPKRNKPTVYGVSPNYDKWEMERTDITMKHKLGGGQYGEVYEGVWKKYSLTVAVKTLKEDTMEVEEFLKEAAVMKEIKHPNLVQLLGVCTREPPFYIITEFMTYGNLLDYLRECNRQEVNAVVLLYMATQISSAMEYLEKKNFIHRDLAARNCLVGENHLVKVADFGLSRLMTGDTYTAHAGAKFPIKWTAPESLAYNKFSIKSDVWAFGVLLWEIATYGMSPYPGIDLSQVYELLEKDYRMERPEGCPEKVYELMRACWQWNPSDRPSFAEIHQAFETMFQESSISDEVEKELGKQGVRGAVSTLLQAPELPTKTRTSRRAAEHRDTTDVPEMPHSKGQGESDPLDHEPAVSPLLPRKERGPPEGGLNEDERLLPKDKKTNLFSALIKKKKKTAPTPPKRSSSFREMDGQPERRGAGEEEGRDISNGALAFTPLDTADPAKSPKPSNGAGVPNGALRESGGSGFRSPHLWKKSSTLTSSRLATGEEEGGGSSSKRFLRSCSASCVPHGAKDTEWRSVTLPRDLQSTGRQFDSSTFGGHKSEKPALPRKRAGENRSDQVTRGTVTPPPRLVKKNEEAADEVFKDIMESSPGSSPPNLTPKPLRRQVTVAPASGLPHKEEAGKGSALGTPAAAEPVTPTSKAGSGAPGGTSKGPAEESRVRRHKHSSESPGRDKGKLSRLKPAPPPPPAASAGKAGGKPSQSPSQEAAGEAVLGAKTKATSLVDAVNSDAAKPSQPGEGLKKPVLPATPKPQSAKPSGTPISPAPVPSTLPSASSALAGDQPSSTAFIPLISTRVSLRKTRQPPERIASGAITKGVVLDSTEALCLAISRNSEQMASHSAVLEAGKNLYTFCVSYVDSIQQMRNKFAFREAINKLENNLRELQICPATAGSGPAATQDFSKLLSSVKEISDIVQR
Calls of active or inactive are those of the source.
Reply using exactly one outcome from active, inactive

As a guide, the following entries are already answered.
compound | class.assignment
COC(=O)[C@@]1(O)C[C@H]2O[C@]1(C)n1c3ccccc3c3c4c(c5c6ccccc6n2c5c31)C(=O)NC4 [K-252A] | inactive
N[C@@H]1CCCN(c2c(/C=C3\SC(=O)NC3=O)cccc2-c2ccccc2)C1 | inactive
CCn1c(=O)c(-c2cc[nH]n2)cc2c(C)nc(N)nc21 | inactive
COC(=O)N[C@@H](C)CNc1nccc(-c2cn(C(C)C)nc2-c2cc(Cl)cc(NS(C)(=O)=O)c2F)n1 | inactive
CN1CCC(COc2cnc(-c3cccc(Cn4nc(-c5cccc(C#N)c5)ccc4=O)c3)nc2)CC1 | inactive
C1=C/COCc2cc(ccc2OCCN2CCCC2)Nc2nccc(n2)-c2cccc(c2)COC/1 | inactive
CNC(=O)c1cc(Oc2ccc(NC(=O)Nc3ccc(Cl)c(C(F)(F)F)c3)c(F)c2)ccn1 | active

Switching to the query record.
Could you check what this test reported for Cc1ccc(NC(=O)c2ccc(CN3CC[C@H](N(C)C)C3)c(C(F)(F)F)c2)cc1Nc1nccc(-c2cncnc2)n1 ?
active

###

- system: Ribosyldihydronicotinamide dehydrogenase [quinone] (Homo sapiens, UniProt P16083); also: in the data inactive means no Kd found up to 30 µM
- Sequence (P16083 whole entry): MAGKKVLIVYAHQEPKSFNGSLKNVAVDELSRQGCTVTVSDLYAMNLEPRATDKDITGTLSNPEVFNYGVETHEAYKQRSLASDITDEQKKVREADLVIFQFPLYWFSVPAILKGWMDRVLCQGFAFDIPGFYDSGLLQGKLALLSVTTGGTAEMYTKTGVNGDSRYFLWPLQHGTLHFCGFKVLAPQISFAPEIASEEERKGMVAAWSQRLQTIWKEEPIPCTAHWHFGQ
The source made the active and inactive calls.
Reply using exactly one outcome from active, inactive

Could you check what this test reported for CC(=O)Nc1cccc(-n2c(=O)n(C3CC3)c(=O)c3c(Nc4ccc(I)cc4F)n(C)c(=O)c(C)c32)c1 [TRAMETINIB] ?
inactive

Could you check what this test reported for Cc1cn(-c2cc(NC(=O)c3ccc(C)c(Nc4nccc(-c5cccnc5)n4)c3)cc(C(F)(F)F)c2)cn1 [NILOTINIB] ?
active

Could you check what this test reported for CCN1CCN(Cc2ccc(-c3cc4c(N[C@H](C)c5ccccc5)ncnc4[nH]3)cc2)CC1 [AEE-788] ?
inactive

###

// values below are Kd; system is Serine/threonine-protein kinase A-Raf (Homo sapiens); also: in the data inactive means no Kd found up to 30 µM
Sequence (P10398 whole entry): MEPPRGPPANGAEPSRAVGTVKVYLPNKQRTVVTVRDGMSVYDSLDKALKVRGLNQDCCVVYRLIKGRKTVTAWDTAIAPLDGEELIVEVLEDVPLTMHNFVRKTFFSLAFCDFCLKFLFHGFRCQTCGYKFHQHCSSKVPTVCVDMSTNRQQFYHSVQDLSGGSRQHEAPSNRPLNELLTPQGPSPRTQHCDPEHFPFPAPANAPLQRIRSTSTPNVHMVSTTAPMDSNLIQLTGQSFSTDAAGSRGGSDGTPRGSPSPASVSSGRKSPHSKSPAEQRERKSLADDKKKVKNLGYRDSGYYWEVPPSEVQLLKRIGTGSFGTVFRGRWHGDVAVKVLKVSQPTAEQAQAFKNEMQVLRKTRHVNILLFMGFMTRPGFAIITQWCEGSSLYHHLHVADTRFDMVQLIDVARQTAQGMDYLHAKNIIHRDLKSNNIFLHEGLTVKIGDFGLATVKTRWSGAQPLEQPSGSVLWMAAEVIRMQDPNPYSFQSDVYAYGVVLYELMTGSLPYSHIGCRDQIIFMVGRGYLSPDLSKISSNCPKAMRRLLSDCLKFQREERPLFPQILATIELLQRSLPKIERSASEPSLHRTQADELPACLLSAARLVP
Active and inactive are the calls of the source.

Worked cases, Kd given:
structure.as.smiles | Kd
Cn1ncc(Cl)c1-c1cc(C(=O)N[C@H](CN)Cc2cccc(F)c2)sc1Cl | > 30 µM (inactive)
CN(C)C(=O)c1cc2cnc(Nc3ccc(N4CCNCC4)cn3)nc2n1C1CCCC1 | > 30 µM (inactive)
CCN1CCN(Cc2ccc(-c3cc4c(N[C@H](C)c5ccccc5)ncnc4[nH]3)cc2)CC1 | > 30 µM (inactive)
COc1cc(OC)c(/C=C/S(=O)(=O)Cc2ccc(OC)c(NCC(=O)O)c2)c(OC)c1 | > 30 µM (inactive)
CN1CCC(COc2cnc(-c3cccc(Cn4nc(-c5cccc(C#N)c5)ccc4=O)c3)nc2)CC1 | > 30 µM (inactive)

Give a short answer stating reported Kd for CN1CC[C@@H](c2c(O)cc(O)c3c(=O)cc(-c4ccccc4Cl)oc23)[C@@H]1CO .
> 30 µM (inactive)

Give a short answer stating reported Kd for Cn1cc(-c2ccc3nnc(C(F)(F)c4ccc5ncccc5c4)n3n2)cn1 .
> 30 µM (inactive)

Give a short answer stating reported Kd for C[C@@H]1CN(Cc2ccc(F)cc2)[C@@H](C)CN1C(=O)c1cc2c(C(=O)C(=O)N(C)C)cn(C)c2cc1Cl .
> 30 µM (inactive)
